# credit: PubChem BioAssay AID1240

target-system: Bcl-2-like protein 10 (Homo sapiens) (UniProt Q9HD36)
Sequence (Q9HD36 whole entry, looked up): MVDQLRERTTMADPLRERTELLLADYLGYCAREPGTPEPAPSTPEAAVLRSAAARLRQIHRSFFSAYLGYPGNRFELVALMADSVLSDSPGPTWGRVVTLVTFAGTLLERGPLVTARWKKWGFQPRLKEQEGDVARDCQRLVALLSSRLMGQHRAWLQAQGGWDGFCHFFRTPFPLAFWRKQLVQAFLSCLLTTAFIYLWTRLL
assay-text: TR3 peptide-Bcl-B binding displacers, biochemical primary FP assay, phenotype converters (AID 1240);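 note: 0% = Bcl-B with tracer peptide and DMSO and 100% = tracer peptide lacking Bcl-B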
recorded-conditions: GST-Bcl-B / FITC-TR3 peptide fluorescence polarization; stronger effect = higher value; compound at 3.75 mg/L
About 800 (1.6%) of roughly 50,000 compounds showed an effect of 50% or more. The full list was thinned out, with strong results kept by preference.
metric: displacement (%)
All answers are understood in %, so give the number only.

Q: // query displacement value for entry `CCOC(=O)c1ccc(-c2ccc(/C=C3/C(=O)NN(c4cccc(Cl)c4)C3=O)o2)cc1`
A: -1.9

Q: // query displacement value for entry `COc1ccc(N2C(=O)NC(=O)/C(=C\c3cc(C)n(-c4ccc(N5CCOCC5)cc4)c3C)C2=O)cc1`
A: 15.9

Q: // query displacement value for entry `COC(=O)c1ccc(-n2c(C)cc(/C=C3\C(=O)NC(=O)N(c4ccc(OC)cc4)C3=O)c2C)cc1`
A: 115

Q: // query displacement value for entry `CN1C(=O)C(=Cc2ccc(-c3ccc(Cl)c(Cl)c3)o2)C(=O)N(C)C1=O`
A: -3.8

Q: // query displacement value for entry `COC(=O)c1ccc(-n2c(C)cc(C=C3C(=O)NC(=S)NC3=O)c2C)cc1`
A: 24.8

====

target-system: Bcl-2-like protein 10 (Homo sapiens)
assay-text: TR3 peptide-Bcl-B binding displacers, biochemical primary FP assay, phenotype converters (AID 1240);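 note: 0% = Bcl-B with tracer peptide and DMSO and 100% = tracer peptide lacking Bcl-B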
recorded-conditions: GST-Bcl-B / FITC-TR3 peptide fluorescence polarization; stronger effect = higher value; compound at 3.75 mg/L
About 800 (1.6%) of roughly 50,000 compounds showed an effect of 50% or more. The sample holds strong results, similar compounds and a random draw of the others, so the mix is not that of the screen.
metric: displacement

Before answering, review these 6 worked examples.
| compound | displacement |
| --- | --- |
| O=C(/C=C/c1ccc(-c2cccc([N+](=O)[O-])c2)o1)c1ccco1 | 79.3% |
| O=C(CNc1ccc2ccccc2c1)N/N=C/c1ccc(Br)c([N+](=O)[O-])c1 | -4.4% |
| CCc1ccc(NC(=O)C(=O)NCc2ccccc2OC)cc1 | 6.8% |
| COc1ccc(OCC(=O)Nc2ccc(OC)c(OC)c2)cc1 | -4.2% |
| O=C1/C(=C/c2ccc(-c3cc(Cl)ccc3Cl)o2)SC(=S)N1Cc1ccco1 | 14.1% |
| COc1ccc(OC)c(/C=N/NC(=O)CSc2ncccn2)c1 | 1.1% |

Q: // query displacement value for entry `O=C1/C(=C\c2ccc(-c3ccccc3Cl)o2)SC(=S)N1Cc1ccccc1`
A: 10%

Q: // query displacement value for entry `O=C(/C=C/c1ccc(-c2ccc(Cl)cc2Cl)o1)c1ccco1`
A: 3.4%

Q: // query displacement value for entry CCOC(=O)C1=C(C)N=c2s/c(=C\c3ccc(O)c(OC)c3)c(=O)n2C1c1ccc(OC)cc1 (stereo unspecified)
A: 4.2%

Q: // query displacement value for entry CCOC(=O)C1=C(C)N=c2s/c(=C\c3ccc(O)c(OC)c3)c(=O)n2C1c1cccc(OC)c1 (stereo unspecified)
A: -2.1%

Q: // query displacement value for entry `CCOC(=O)c1c(NC(=O)c2ccc(Cl)cc2Cl)sc(C(=O)Nc2ccccc2C)c1C`
A: 1.3%

Q: // query displacement value for entry CCOC(=O)c1ccccc1N(C(=O)C(F)(F)F)C1C=CS(=O)(=O)C1 (stereo unspecified)
A: -3.1%

Q: // query displacement value for entry CCOC(=O)C1=C(c2ccccc2)N=c2s/c(=C\c3ccc(O)c(OC)c3)c(=O)n2C1c1ccc(OC)cc1 (stereo unspecified)
A: 104%

Q: // query displacement value for entry `O=C(/C=C/c1ccc(-c2cccc(Br)c2)o1)c1ccco1`
A: 11.8%

Q: // query displacement value for entry CC(C)NC(=O)C1CC1(c1ccccc1)c1ccccc1 (stereo unspecified)
A: 4.7%

Q: // query displacement value for entry `C=CCN1C(=O)/C(=C\c2ccc(-c3cc(Cl)ccc3Cl)o2)SC1=S`
A: 65.4%

Q: // query displacement value for entry CCOC(=O)C1=C(C)N=c2s/c(=C\c3ccc(O)c(OC)c3)c(=O)n2C1c1ccc(C)cc1 (stereo unspecified)
A: 98.4%

Q: // query displacement value for entry `Cc1c(C(=O)NCCc2ccccc2)cccc1[N+](=O)[O-]`
A: -8%

Q: // query displacement value for entry `COc1ccc(Cl)cc1N=CC1=C(O)CC(C)(C)CC1=O`
A: 3.1%

Q: // query displacement value for entry `C=CCN1C(=O)/C(=C\c2ccc(-c3ccc(Cl)c(Cl)c3)o2)SC1=S`
A: 50.1%

Q: // query displacement value for entry `Cc1ccc(S(=O)(=O)Oc2ccc(/C=C3\SC(N)=NC3=O)cc2Br)cc1`
A: 1.8%

====

target-system: Bcl-2-like protein 10 (Homo sapiens) (UniProt Q9HD36)
assay-text: TR3 peptide-Bcl-B binding displacers, biochemical primary FP assay, phenotype converters (AID 1240);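 note: 0% = Bcl-B with tracer peptide and DMSO and 100% = tracer peptide lacking Bcl-B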
recorded-conditions: GST-Bcl-B / FITC-TR3 peptide fluorescence polarization; stronger effect = higher value; compound at 3.75 mg/L
Hit rate of the full screen: of about 50,000 compounds, about 800 (1.6%) showed an effect of 50% or more. The sample holds strong results, similar compounds and a random draw of the others, so the mix is not that of the screen.
metric: displacement (%)
All answers are understood in %, so give the number only.

| molecule | displacement / % |
| --- | --- |
| Cc1nc2c(sc3nc(C)c(C)c(C)c32)c(=O)o1 | 0 |
| O=c1c2c3c(sc2[nH]c(=S)n1-c1ccccc1)-c1ccccc1CC3 | 102 |
| O=C1c2ccccc2C(=O)C12OC(c1ccc(Br)cc1)C1(C(=O)c3ccccc3C1=O)C2c1ccc(F)cc1 (configuration not stated) | 2.6 |
| CN1C(=O)NC(=O)/C(=C/c2ccc(-c3cccc(Cl)c3Cl)o2)C1=O | 74.5 |
| CN1C(=O)C(=Cc2ccc(-c3cccc(Cl)c3Cl)o2)C(=O)N(C)C1=O | 4.6 |
| CCOc1ccc(N(CC(=O)Nc2cccc3cccnc23)S(=O)(=O)c2ccccc2)cc1 | -39.5 |
| CC(=O)Nc1ccc(S(=O)(=O)Nc2ccccc2Br)cc1 | -2.9 |
| O=C1NC(=O)N(c2ccccc2)C(=O)/C1=C\c1ccc(-c2ccccc2Cl)o1 | 42.6 |
| O=C(Cc1ccc(Br)cc1)N1CCN(c2ccccc2)CC1 | 9.8 |
| O=C1c2ccccc2NC(c2ccc(-c3ccccc3[N+](=O)[O-])o2)N1c1ccccc1 (configuration not stated) | 16.8 |

Q: Identify the measured displacement of `Cc1ccc(N2C(=O)NC(=O)/C(=C\c3ccc(-c4ccc([N+](=O)[O-])cc4Cl)o3)C2=O)cc1` for Bcl-2-like protein 10 (Homo sapiens) (UniProt Q9HD36).
A: 87.2

Q: Identify the measured displacement of `COc1ccc(N2C(=O)NC(=O)/C(=C/c3ccc(-c4ccc([N+](=O)[O-])cc4Cl)o3)C2=O)cc1` for Bcl-2-like protein 10 (Homo sapiens) (UniProt Q9HD36).
A: 20.3

Q: Identify the measured displacement of `COC(=O)C1=C(C(=O)OC)SC(=C2C(=S)C(C)(C)N(C(=O)c3cccc(F)c3)c3ccc(OC)cc32)S1` for Bcl-2-like protein 10 (Homo sapiens) (UniProt Q9HD36).
A: -7.9

Q: Identify the measured displacement of `CN1CCN(Cc2c(O)ccc3cc(-c4nc5ccccc5[nH]4)c(=O)oc23)CC1` for Bcl-2-like protein 10 (Homo sapiens) (UniProt Q9HD36).
A: 125

Q: Identify the measured displacement of `CCOc1cc(C(=S)N2CCOCC2)ccc1OC(=O)c1cccc([N+](=O)[O-])c1` for Bcl-2-like protein 10 (Homo sapiens) (UniProt Q9HD36).
A: 8.7

Q: Identify the measured displacement of `Cc1c(NC(=O)/C=C/c2ccccc2)c(=O)n(-c2ccccc2)n1C` for Bcl-2-like protein 10 (Homo sapiens) (UniProt Q9HD36).
A: 2.7

Q: Identify the measured displacement of `O=C1NC(=O)C(=Cc2ccc(-c3cccc(Br)c3)o2)C(=O)N1` for Bcl-2-like protein 10 (Homo sapiens) (UniProt Q9HD36).
A: 81.1

Q: Identify the measured displacement of `COc1ccccc1-c1coc2c(CN3CCN(C)CC3)c(O)ccc2c1=O` for Bcl-2-like protein 10 (Homo sapiens) (UniProt Q9HD36).
A: -1.3

Q: Identify the measured displacement of `C[N+]1=C(CC(=O)Nc2ccccc2Cl)c2ccccc2CC1(C)C` for Bcl-2-like protein 10 (Homo sapiens) (UniProt Q9HD36).
A: 1.4

Q: Identify the measured displacement of `CCc1ccc(/C=C2/C(=O)NC(=O)N2C(C)=O)cc1` for Bcl-2-like protein 10 (Homo sapiens) (UniProt Q9HD36).
A: 13.8

Q: Identify the measured displacement of `O=C(Oc1ccccc1C(=S)N1CCOCC1)c1cccc([N+](=O)[O-])c1` for Bcl-2-like protein 10 (Homo sapiens) (UniProt Q9HD36).
A: 10.7

Q: Identify the measured displacement of `COc1ccccc1N1CCN(C(=O)COc2ccc(Cl)cc2C)CC1` for Bcl-2-like protein 10 (Homo sapiens) (UniProt Q9HD36).
A: -4.5

Q: Identify the measured displacement of `O=C1NC(=O)N(c2ccccc2)C(=O)/C1=C\c1ccc(-c2ccc([N+](=O)[O-])cc2Cl)o1` for Bcl-2-like protein 10 (Homo sapiens) (UniProt Q9HD36).
A: 11.5

Q: Identify the measured displacement of `O=[N+]([O-])c1ccc(/C=N/c2nc3c(s2)CCCC3)cc1` for Bcl-2-like protein 10 (Homo sapiens) (UniProt Q9HD36).
A: 6.6

Q: Identify the measured displacement of `CCOc1ccc(S(=O)(=O)NCc2ccccc2Cl)c2ccccc12` for Bcl-2-like protein 10 (Homo sapiens) (UniProt Q9HD36).
A: 3.4

Q: Identify the measured displacement of `COc1ccc(CN2CCN(Cc3ccncc3)CC2)c(OC)c1` for Bcl-2-like protein 10 (Homo sapiens) (UniProt Q9HD36).
A: -16.7

Q: Identify the measured displacement of `Cc1ccc(-c2[nH]n3c(=O)cc(-c4ccccc4)nc3c2C)cc1` for Bcl-2-like protein 10 (Homo sapiens) (UniProt Q9HD36).
A: 15.2

Q: Identify the measured displacement of `CCc1cc2c(=O)c(-c3nc4ccccc4[nH]3)coc2c(CN2CCOCC2)c1O` for Bcl-2-like protein 10 (Homo sapiens) (UniProt Q9HD36).
A: 8.5

Q: Identify the measured displacement of `CN1C(=O)NC(=O)/C(=C\c2cc(Cl)c(OCC(=O)O)c(Cl)c2)C1=O` for Bcl-2-like protein 10 (Homo sapiens) (UniProt Q9HD36).
A: -3.5

Q: Identify the measured displacement of `Cc1ccc2[nH]c(O)c(N=NC(=O)c3cc4ccccc4nc3C)c2c1` for Bcl-2-like protein 10 (Homo sapiens) (UniProt Q9HD36).
A: 5.5
